Biological target: UniProt P21554
Sequence (P21554 whole entry): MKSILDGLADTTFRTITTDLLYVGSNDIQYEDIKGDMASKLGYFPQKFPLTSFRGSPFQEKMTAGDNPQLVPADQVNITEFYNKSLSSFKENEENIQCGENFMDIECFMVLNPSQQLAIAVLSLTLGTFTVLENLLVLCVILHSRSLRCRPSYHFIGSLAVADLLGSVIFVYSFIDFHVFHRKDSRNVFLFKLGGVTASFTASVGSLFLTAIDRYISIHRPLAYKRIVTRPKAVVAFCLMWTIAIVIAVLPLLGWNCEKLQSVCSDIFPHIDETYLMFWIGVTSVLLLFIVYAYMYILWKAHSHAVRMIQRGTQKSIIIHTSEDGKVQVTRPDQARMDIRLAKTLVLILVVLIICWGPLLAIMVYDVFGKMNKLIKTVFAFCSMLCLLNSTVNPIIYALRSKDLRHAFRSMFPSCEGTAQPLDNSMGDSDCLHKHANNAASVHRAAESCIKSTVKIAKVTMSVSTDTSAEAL
Assay: cAMP assay (LANCE TR-FRET) in CHO-K1 cells expressing hCB1
Assay type: cell-based
Details: intracellular cAMP, NKH-477 prestimulated, + agonist, − inverse agonist
READOUT: hCB1 EC50 range

Here are 8 compounds together with their reported answers.
[[record]]
chemical_smiles = "O=C(NC12CC3CC(CC(C3)C1)C2)c1ccc2c(c1)N(C(=O)c1ccc(Cl)cc1)CCS2"
readout = "hCB1 EC50 range"
recorded_value = "−E"

[[record]]
chemical_smiles = "CC(C)(C)NC(=O)c1ccc2c(c1)N(S(=O)(=O)c1ccccc1)CCC(C)(C)S2"
readout = "hCB1 EC50 range"
recorded_value = "−E"

[[record]]
chemical_smiles = "O=C(NC1CCCC1)c1ccc2c(c1)N(C(=O)c1ccccc1)CCS2"
readout = "hCB1 EC50 range"
recorded_value = "−E"

[[record]]
chemical_smiles = "CCC(=O)N1CCSc2ccc(C(=O)NC34CC5CC(CC(C5)C3)C4)cc21"
readout = "hCB1 EC50 range"
recorded_value = "−E"

[[record]]
chemical_smiles = "COC(=O)[C@@H](NC(=O)c1ccc2c(c1)N(S(=O)(=O)c1ccccc1)CCC(C)(C)S2)C(C)(C)C"
readout = "hCB1 EC50 range"
recorded_value = "−D"

[[record]]
chemical_smiles = "O=C(NC12CC3CC(CC(C3)C1)C2)c1ccc2c(c1)N(S(=O)(=O)c1ccc(F)cc1)CCS2"
readout = "hCB1 EC50 range"
recorded_value = "+D"

[[record]]
chemical_smiles = "COc1ccc(C(=O)N2CCSc3ccc(C(=O)NC45CC6CC(CC(C6)C4)C5)cc32)cc1"
readout = "hCB1 EC50 range"
recorded_value = "−E"

[[record]]
chemical_smiles = "O=S(=O)(c1ccc(F)cc1)N1CCSc2ccc(-c3ncc(-c4ccccc4)[nH]3)cc21"
readout = "hCB1 EC50 range"
recorded_value = "+E"


INPUT: Look at this compound and give its reported hCB1 EC50 range. "CC(C)(C)c1noc(-c2ccc3c(c2)N(S(=O)(=O)c2ccccc2)CCS3)n1"
OUTPUT: +E

INPUT: Look at this compound and give its reported hCB1 EC50 range. "CC1(C)CCN(S(=O)(=O)c2ccc(F)cc2)c2cc(C(=O)NCC3CCOCC3)ccc2S1"
OUTPUT: −E

* * *

Biological target: rat CB2 receptor (rCB2) (Rattus norvegicus)
Sequence (Q9QZN9 whole entry): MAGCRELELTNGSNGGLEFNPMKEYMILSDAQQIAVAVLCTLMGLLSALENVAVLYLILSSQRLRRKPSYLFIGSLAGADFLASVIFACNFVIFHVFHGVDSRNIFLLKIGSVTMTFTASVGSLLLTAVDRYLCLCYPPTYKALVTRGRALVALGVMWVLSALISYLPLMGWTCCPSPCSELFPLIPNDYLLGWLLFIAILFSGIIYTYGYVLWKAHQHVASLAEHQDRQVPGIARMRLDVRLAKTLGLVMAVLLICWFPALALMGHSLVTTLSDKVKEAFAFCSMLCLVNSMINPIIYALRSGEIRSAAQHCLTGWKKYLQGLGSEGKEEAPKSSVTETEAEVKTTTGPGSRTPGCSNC
Test: cell-based
Type: cell-based
Settings: intracellular cAMP, CHO-K1 cells, NKH-477 prestimulated; + agonist, − inverse agonist
READOUT: rCB2 EC50 range

Here are 5 compounds together with their reported answers.
[[record]]
compound = "CC(C)CNC(=O)c1ccc2c(c1)N(S(=O)(=O)c1ccccc1)CCC(C)(C)S2 [Example 92]"
recorded_value = "−E"

[[record]]
compound = "COCCCNC(=O)c1ccc2c(c1)N(S(C)(=O)=O)CCS2 [Example 56]"
recorded_value = "+E"

[[record]]
compound = "O=S(=O)(c1ccc(C(F)(F)F)cc1)N1CCSc2ccc(-c3ncc(-c4ccccc4)[nH]3)cc21 [Example 107]"
recorded_value = "+B"

[[record]]
compound = "CC(C)CNC(=O)c1ccc2c(c1)N(S(=O)(=O)c1ccccc1)CCO2 [Example 59]"
recorded_value = "+C"

[[record]]
compound = "C[C@H](NC(=O)c1ccc2c(c1)N(S(=O)(=O)c1ccccc1)CCC(C)(C)S2)C(C)(C)C [Example 98]"
recorded_value = "−E"


INPUT: Reported rCB2 EC50 range for rat CB2 receptor (rCB2) (Rattus norvegicus), given CNC(=O)[C@@H](NC(=O)c1ccc2c(c1)N(S(=O)(=O)c1ccc(F)cc1)CCC(C)(C)S2)C(C)(C)C [Example 103] ?
OUTPUT: +C

INPUT: Reported rCB2 EC50 range for rat CB2 receptor (rCB2) (Rattus norvegicus), given COc1ccc(C(=O)N2CCSc3ccc(C(=O)NC(C)(C)C)cc32)cc1 [Example 7] ?
OUTPUT: −E

INPUT: Reported rCB2 EC50 range for rat CB2 receptor (rCB2) (Rattus norvegicus), given COCCCNC(=O)c1ccc2c(c1)N(C(=O)c1ccccc1)CCS2 [Example 16] ?
OUTPUT: −D
